molecular target: HDAC3 (Homo sapiens, UniProt O15379); test: In vitro HDAC inhibition assay (fluorogenic substrate), HDAC3; format: biochemical; design: All three full-length rhHDACs were expressed in insect High5 cells using a baculoviral expression system; His6; GST; made in house; host or cells: insect High5 cells (baculovirus); conditions: recombinant human HDAC3; mean ± SD of three independent determinations
Sequence (O15379 whole entry): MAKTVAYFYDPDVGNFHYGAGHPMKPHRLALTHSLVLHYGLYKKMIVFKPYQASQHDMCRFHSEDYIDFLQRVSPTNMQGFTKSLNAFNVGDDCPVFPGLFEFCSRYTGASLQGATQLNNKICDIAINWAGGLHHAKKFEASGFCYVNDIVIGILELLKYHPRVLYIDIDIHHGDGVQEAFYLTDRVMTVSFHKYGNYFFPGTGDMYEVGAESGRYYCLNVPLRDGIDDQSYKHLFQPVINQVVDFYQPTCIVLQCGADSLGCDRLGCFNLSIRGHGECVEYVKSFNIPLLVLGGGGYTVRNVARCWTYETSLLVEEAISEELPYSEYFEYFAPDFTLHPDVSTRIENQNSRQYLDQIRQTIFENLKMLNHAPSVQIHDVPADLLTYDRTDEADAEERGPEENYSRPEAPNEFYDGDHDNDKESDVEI
Sequence (Q9Y618 395-489 partner limits assumed): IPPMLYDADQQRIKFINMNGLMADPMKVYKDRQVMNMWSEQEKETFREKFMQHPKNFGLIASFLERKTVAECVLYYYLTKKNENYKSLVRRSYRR
MEASURED_ENDPOINT: IC50 (µM)
Use µM as the unit, but write only the number.

Please review the entries below; each comes with its answer.
>  <COMPOUND>
O=C(CCCCCC(=O)Nc1cccc2c1CN(C1CCC(=O)NC1=O)C2=O)NO (stereo not shown) [9a]

>  <TARGET_DESC>
HDAC3 (Homo sapiens, UniProt O15379)

>  <MEASURED_VALUE>
2.2

$$$$
>  <COMPOUND>
O=C1CCC(N2Cc3c(OCc4ccc(C(=O)NO)cc4)cccc3C2=O)C(=O)N1 (stereo not shown) [23a]

>  <TARGET_DESC>
HDAC3 (Homo sapiens, UniProt O15379)

>  <MEASURED_VALUE>
0.65

$$$$
>  <COMPOUND>
O=C(CCCCCNC(=O)Nc1cccc2c1C(=O)N(C1CCC(=O)NC1=O)C2=O)NO (stereo not shown) [15d]

>  <TARGET_DESC>
HDAC3 (Homo sapiens, UniProt O15379)

>  <MEASURED_VALUE>
0.22

$$$$
>  <COMPOUND>
O=C(CCCCCCC(=O)Nc1cccc2c1CN(C1CCC(=O)NC1=O)C2=O)NO (stereo not shown) [9b]

>  <TARGET_DESC>
HDAC3 (Homo sapiens, UniProt O15379)

>  <MEASURED_VALUE>
0.47

$$$$
>  <COMPOUND>
O=C(CCCCCNC(=O)Nc1cccc2c1CN(C1CCC(=O)NC1=O)C2=O)NO (stereo not shown) [15a]

>  <TARGET_DESC>
HDAC3 (Homo sapiens, UniProt O15379)

>  <MEASURED_VALUE>
0.27

$$$$

# get_value(readout= IC50, system= HDAC3 (Homo sapiens, UniProt O15379)) for O=C(CCCCCCCCNC(=O)Nc1cccc2c1CN(C1CCC(=O)NC1=O)C2=O)NO (stereo not shown) [15c]
0.96

Same again, this time with Nc1ccccc1NC(=O)c1ccc(COc2cccc3c2C(=O)N(C2CCC(=O)NC2=O)C3=O)cc1 (stereo not shown) [21b]
0.28

Same again, this time with Nc1ccccc1NC(=O)c1ccc(COc2cccc3c2CN(C2CCC(=O)NC2=O)C3=O)cc1 (stereo not shown) [21a]
0.56

Same again, this time with O=C1CCC(N2C(=O)c3cccc(OCc4ccc(C(=O)NO)cc4)c3C2=O)C(=O)N1 (stereo not shown) [23b]
0.76

Same again, this time with O=C(CCCCCCNC(=O)Nc1cccc2c1CN(C1CCC(=O)NC1=O)C2=O)NO (stereo not shown) [15b]
0.58

Same again, this time with O=C(CCCCCCCCC(=O)Nc1cccc2c1CN(C1CCC(=O)NC1=O)C2=O)NO (stereo not shown) [9d]
0.75

Same again, this time with O=C(CCCCCCC(=O)Nc1cccc2c1C(=O)N(C1CCC(=O)NC1=O)C2=O)NO (stereo not shown) [9e]
0.33

Same again, this time with O=C(CCCCCCCC(=O)Nc1cccc2c1CN(C1CCC(=O)NC1=O)C2=O)NO (stereo not shown) [9c]
1.06

====

# IC50 listing for each entry below
tested on: MM.1S cell line; assay: In vitro anti-proliferative activity, MTS assay; type: cell-based; settings: Homo sapiens, MM1.S; MM.1S, 72 h, MTS; mean ± SD of three independent determinations; read-out: IC50 (μM ± SD) anti-proliferative activity against MM.1S cell line

>  <COMPOUND>
O=C(CCCCCCC(=O)Nc1cccc2c1CN(C1CCC(=O)NC1=O)C2=O)NO (centres unmarked) [9b]

>  <MEASURED_ENDPOINT>
IC50

>  <MEASURED_VALUE>
> 10 µM

$$$$

State the recorded IC50 for this entry: O=C1CCC(N2Cc3c(OCc4ccc(C(=O)NO)cc4)cccc3C2=O)C(=O)N1 (centres unmarked) [23a]
> 10 µM

Same again, this time with O=C(CCCCCNC(=O)Nc1cccc2c1CN(C1CCC(=O)NC1=O)C2=O)NO (centres unmarked) [15a]
> 10 µM

Same again, this time with O=C(CCCCCCC(=O)Nc1cccc2c1C(=O)N(C1CCC(=O)NC1=O)C2=O)NO (centres unmarked) [9e]
> 10 µM

Same again, this time with O=C1CCC(N2C(=O)c3cccc(OCc4ccc(C(=O)NO)cc4)c3C2=O)C(=O)N1 (centres unmarked) [23b]
1.34 µM

Same again, this time with Nc1ccccc1NC(=O)c1ccc(COc2cccc3c2C(=O)N(C2CCC(=O)NC2=O)C3=O)cc1 (centres unmarked) [21b]
0.541 µM

Same again, this time with O=C(CCCCCNC(=O)Nc1cccc2c1C(=O)N(C1CCC(=O)NC1=O)C2=O)NO (centres unmarked) [15d]
> 10 µM

Same again, this time with Nc1ccccc1NC(=O)c1ccc(COc2cccc3c2CN(C2CCC(=O)NC2=O)C3=O)cc1 (centres unmarked) [21a]
0.043 µM

====

molecular target: HDAC6 (Homo sapiens); test: In vitro HDAC inhibition assay (fluorogenic substrate), HDAC6; format: biochemical; design: All three full-length rhHDACs were expressed in insect High5 cells using a baculoviral expression system; His6; GST; made in house; host or cells: insect High5 cells (baculovirus); conditions: recombinant human HDAC6; mean ± SD of three independent determinations
Sequence (Q9UBN7 whole entry): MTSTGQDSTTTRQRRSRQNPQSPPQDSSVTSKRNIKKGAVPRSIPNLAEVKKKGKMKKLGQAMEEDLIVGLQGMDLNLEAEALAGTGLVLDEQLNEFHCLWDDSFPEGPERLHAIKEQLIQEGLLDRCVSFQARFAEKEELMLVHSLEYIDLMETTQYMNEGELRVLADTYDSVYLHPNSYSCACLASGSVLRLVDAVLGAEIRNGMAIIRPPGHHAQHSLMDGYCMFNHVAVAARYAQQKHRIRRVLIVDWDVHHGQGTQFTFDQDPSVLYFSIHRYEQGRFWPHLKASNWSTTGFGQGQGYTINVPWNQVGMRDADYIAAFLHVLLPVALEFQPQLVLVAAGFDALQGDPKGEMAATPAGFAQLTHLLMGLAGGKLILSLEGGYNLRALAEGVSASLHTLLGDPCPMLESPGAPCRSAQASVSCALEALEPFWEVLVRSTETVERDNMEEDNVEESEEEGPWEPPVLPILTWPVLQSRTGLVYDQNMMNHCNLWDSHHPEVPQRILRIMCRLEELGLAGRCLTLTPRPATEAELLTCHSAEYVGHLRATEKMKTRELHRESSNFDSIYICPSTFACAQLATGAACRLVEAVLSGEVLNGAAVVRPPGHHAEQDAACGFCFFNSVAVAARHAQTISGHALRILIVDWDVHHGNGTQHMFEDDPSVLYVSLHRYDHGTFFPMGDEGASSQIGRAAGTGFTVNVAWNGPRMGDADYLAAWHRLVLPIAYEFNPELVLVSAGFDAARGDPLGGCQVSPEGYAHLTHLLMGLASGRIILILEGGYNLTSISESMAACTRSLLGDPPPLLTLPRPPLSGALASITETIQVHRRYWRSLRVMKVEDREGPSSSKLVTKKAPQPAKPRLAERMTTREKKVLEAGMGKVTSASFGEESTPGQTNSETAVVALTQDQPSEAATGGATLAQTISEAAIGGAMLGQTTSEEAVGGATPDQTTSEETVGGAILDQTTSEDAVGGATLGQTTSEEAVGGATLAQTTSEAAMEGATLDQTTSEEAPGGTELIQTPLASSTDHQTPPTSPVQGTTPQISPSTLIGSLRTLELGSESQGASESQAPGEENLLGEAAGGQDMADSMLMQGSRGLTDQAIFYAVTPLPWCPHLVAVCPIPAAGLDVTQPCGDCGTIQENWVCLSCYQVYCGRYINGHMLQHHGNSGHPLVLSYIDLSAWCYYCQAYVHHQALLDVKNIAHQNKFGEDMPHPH
# IC50 listing for each entry below

State the recorded IC50 for this entry: O=C1CCC(N2Cc3c(OCc4ccc(C(=O)NO)cc4)cccc3C2=O)C(=O)N1 (stereo not shown) [23a]
0.38 µM

Same again, this time with O=C(CCCCCNC(=O)Nc1cccc2c1CN(C1CCC(=O)NC1=O)C2=O)NO (stereo not shown) [15a]
5.96 µM

Same again, this time with Nc1ccccc1NC(=O)c1ccc(COc2cccc3c2CN(C2CCC(=O)NC2=O)C3=O)cc1 (stereo not shown) [21a]
> 20 µM

Same again, this time with O=C(CCCCCCC(=O)Nc1cccc2c1C(=O)N(C1CCC(=O)NC1=O)C2=O)NO (stereo not shown) [9e]
0.42 µM

Same again, this time with O=C(CCCCCC(=O)Nc1cccc2c1CN(C1CCC(=O)NC1=O)C2=O)NO (stereo not shown) [9a]
1.98 µM

Same again, this time with O=C(CCCCCNC(=O)Nc1cccc2c1C(=O)N(C1CCC(=O)NC1=O)C2=O)NO (stereo not shown) [15d]
5.28 µM

Same again, this time with Nc1ccccc1NC(=O)c1ccc(COc2cccc3c2C(=O)N(C2CCC(=O)NC2=O)C3=O)cc1 (stereo not shown) [21b]
> 20 µM

Same again, this time with O=C(CCCCCCCCNC(=O)Nc1cccc2c1CN(C1CCC(=O)NC1=O)C2=O)NO (stereo not shown) [15c]
3.09 µM

Same again, this time with O=C(CCCCCCNC(=O)Nc1cccc2c1CN(C1CCC(=O)NC1=O)C2=O)NO (stereo not shown) [15b]
1.67 µM

Same again, this time with O=C(CCCCCCCCC(=O)Nc1cccc2c1CN(C1CCC(=O)NC1=O)C2=O)NO (stereo not shown) [9d]
2.94 µM

====

Molecular target: HDAC1 (Homo sapiens, UniProt Q13547)
Sequence (Q13547 whole entry): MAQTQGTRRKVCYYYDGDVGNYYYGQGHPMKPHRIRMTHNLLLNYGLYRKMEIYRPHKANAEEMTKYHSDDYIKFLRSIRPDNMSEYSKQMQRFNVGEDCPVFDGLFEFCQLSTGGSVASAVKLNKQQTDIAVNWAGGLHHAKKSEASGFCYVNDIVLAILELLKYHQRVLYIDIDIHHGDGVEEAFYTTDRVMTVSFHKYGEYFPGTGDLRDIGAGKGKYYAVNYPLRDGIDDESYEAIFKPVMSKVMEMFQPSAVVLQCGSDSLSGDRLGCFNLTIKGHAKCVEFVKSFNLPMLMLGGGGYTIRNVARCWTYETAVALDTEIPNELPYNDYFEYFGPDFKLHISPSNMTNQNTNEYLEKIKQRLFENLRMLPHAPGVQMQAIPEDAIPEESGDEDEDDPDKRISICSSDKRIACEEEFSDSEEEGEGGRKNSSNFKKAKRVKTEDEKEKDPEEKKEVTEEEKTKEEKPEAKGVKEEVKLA
Test: In vitro HDAC inhibition assay (fluorogenic substrate), HDAC1
Type: biochemical
Set-up: All three full-length rhHDACs were expressed in insect High5 cells using a baculoviral expression system; His6; GST; made in house; host or cells: insect High5 cells (baculovirus)
Conditions: recombinant human HDAC1; mean ± SD of three independent determinations
Protocol: All three full-length rhHDACs were expressed in insect High5 cells using a baculoviral expression system, and all the His6-tagged and GST-fusion proteins were purified using Ni-NTA (QIAGEN). […] In brief, the HDAC assay mixture contained an HDAC substrate (5–50 μM, 5 μl), rhHDAC isoforms (20–200 nM) and an inhibitor (1 μl). […] The plates were incubated for 30 min at room temperature to allow the fluorescence signal to develop.
Doc: threshold 0.8 µM (exclusive). Items with IC50 beneath it return true; others return false.

>  <MOLECULE>
O=C(CCCCCCC(=O)Nc1cccc2c1CN(C1CCC(=O)NC1=O)C2=O)NO (stereo not drawn)

>  <LABEL_VALUE>
true

$$$$
>  <MOLECULE>
O=C(CCCCCCC(=O)Nc1cccc2c1C(=O)N(C1CCC(=O)NC1=O)C2=O)NO (stereo not drawn)

>  <LABEL_VALUE>
false

$$$$
>  <MOLECULE>
O=C(CCCCCCCCC(=O)Nc1cccc2c1CN(C1CCC(=O)NC1=O)C2=O)NO (stereo not drawn)

>  <LABEL_VALUE>
true

$$$$
>  <MOLECULE>
O=C(CCCCCNC(=O)Nc1cccc2c1C(=O)N(C1CCC(=O)NC1=O)C2=O)NO (stereo not drawn) [15d]

>  <LABEL_VALUE>
true

$$$$
>  <MOLECULE>
Nc1ccccc1NC(=O)c1ccc(COc2cccc3c2C(=O)N(C2CCC(=O)NC2=O)C3=O)cc1 (stereo not drawn) [21b]

>  <LABEL_VALUE>
false

$$$$

Lab log: compare recorded IC50 with 0.8 µM; is it strictly lower for O=C(CCCCCC(=O)Nc1cccc2c1CN(C1CCC(=O)NC1=O)C2=O)NO (stereo not drawn) ?
false

Same again, this time with O=C1CCC(N2Cc3c(OCc4ccc(C(=O)NO)cc4)cccc3C2=O)C(=O)N1 (stereo not drawn) [23a]
false

Same again, this time with Nc1ccccc1NC(=O)c1ccc(COc2cccc3c2CN(C2CCC(=O)NC2=O)C3=O)cc1 (stereo not drawn) [21a]
false
